Molecular target: T1, SPF45 UHM (residues 301–401) (UniProt Q96I25 301-401)
T1 construct: SPF45, also known as RBM17, UHM domain, residues 301-401; The His6-GST tags (vector pETM30) are TEV-cleavable; also called RBM17 UHM; source: E. coli BL21 (DE3)pLysS, purified (Ni-NTA, SEC)
T1 sequence (looked up): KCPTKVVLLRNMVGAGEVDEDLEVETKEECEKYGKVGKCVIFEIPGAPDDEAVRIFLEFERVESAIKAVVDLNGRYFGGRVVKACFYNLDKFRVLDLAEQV
Assay: ITC; 50 mM sodium phosphate buffer (pH 7.0), 150 mM NaCl, 5 mM DTT; 295 K; protein in the cell, peptide in the syringe; single-site model; averages of three measurements
Settings: both partners purified
Square brackets hold non-standard residues; d marks the D form. Ends that are not written are not given here. pS = N[C@@H](COP(=O)(O)O)C(=O)O
measurement name: pKd
Please treat pKd as minus the base-10 logarithm of the molar concentration.

Per the record, ATRKRRWDAPE (also called S776D peptide; S776D mutant peptide; source: synthetic peptide; bought: Pepceuticals Limited) [Atx1_D_ULM_PE] has pKd of 6.05

Per the record, ATRKRRW[pS]APE (Ataxin-1 (Atx1), residues 769-779, S776 phosphorylated; source: synthetic peptide; bought: Pepceuticals Limited) [Atx1_pS_ULM_PE] has pKd of 4.40

Per the record, ATRKRRWSAPE (Ataxin-1 (Atx1), residues 769-779; source: synthetic peptide; bought: Pepceuticals Limited) [Atx1_S_ULM_PE] has pKd of 4.63

For the next question, use this binder.
Per the record, ATRKRRWAAPE (also called S776A-mutated peptide; S776A mutant peptide; source: synthetic peptide; bought: Pepceuticals Limited) [Atx1_A_ULM_PE] has pKd of 4.65

Taken from paper PMC2791216.
